tested on: TS HT1080 #12; test: Cyquant and crystal violet cytotoxicity; format: cell-based, human; settings: Homo sapiens, HT-1080; TS HT1080 #12, tumor - fibrosarcoma, high TS transfectant; 72 hour incubation
measured_quantity: IC50 (µM)
Kindly answer with a numeric value in µM, unit omitted.

Req: Form field - read-out: IC50; system: TS HT1080 #12; submitted item: O=c1[nH]c(=O)n([C@H]2C[C@H](O)[C@@H](CO)O2)cc1/C=C/Br [BVdU, (E)-5-(2-bromovinyl)-2′-deoxyuridine]
Resp: 5.7

Source of measurements: patent US20070155673A1
